- Test system: M14 melanoma
- procedure.summary: NCI-60 one-dose screen, 48 h (100 = growth as untreated, 0 = no growth, -100 = all killed)
- applied.conditions: 10 µM unless noted
This is part of a sample that, as a whole, favours compounds with a hit. Of some 83,000 tested, about 20% had one in any assay.
measured.attribute: growth (%)

# compound, data.value
records = [
    ("Cc1ccc(C(=O)NCCCOc2ccc(N3C(N)=NC(N)=NC3(C)C)cc2Cl)cc1S(=O)(=O)F", 76.7),
    ("C1CCC([PH+](C2CCCCC2)C2CCCCC2[PH+](C2CCCCC2)C2CCCCC2)CC1.[Au].[CH-]1CCCCC1CC1CCCC[N-]1 (centres undefined)", -54.6),
    ("COc1cc(/C=N/C2=C(C#N)C(c3ccco3)c3c(c4cc(C)ccc4oc3=O)O2)cc(OC)c1OC (centres undefined)", 93.4),
    ("CC[C@H](NC(=O)[C@H]1CCCCN1C)C(=O)N(C)[C@H](C[C@@H](OC(C)=O)c1nc(C(=O)N[C@@H](Cc2ccccc2)C[C@H](C)C(=O)O)cs1)C(C)C", -10.4),
    ("N/C(=N\\N=C\\c1ccc(-c2ccccc2)cc1)N[N+](=O)[O-]", 25.8),
    ("O=C1CCC2(O)[C@@H]3Cc4ccc(O)c5c4[C@]2(CCN3Cc2ccoc2)C1O5 (some centres undefined)", 100),
    ("O=P(Oc1ccc(Cl)cc1)(N1CC1)N1CC1", 86.5),
    ("CC(=O)ONc1ccc([N+](=O)[O-])c(C(F)(F)F)c1", 98.8),
    ("CN1CC(CNC(=O)OCc2ccccc2)CC2c3cccc4c3c(cn4C)CC21 (centres undefined)", -58),
]

====

- Test system: OVCAR-4 ovarian
- procedure.summary: NCI-60 one-dose screen, 48 h
- applied.conditions: 10 µM unless noted
Compounds without any hit were thinned out: in the full panel of roughly 83,000, 20% have a hit. Calls of active or inactive are those of the source. How the source made its calls: active means growth percent below 10; inactive means the rest.
Labels: t (active), f (inactive)

# compound, target.system, classification
rows = [
    ("CC(=O)[O][Hg][O]C(C)=O", "OVCAR-4 ovarian", "f"),
    ("Brc1ccc2c(c1)c(-c1nc(-c3c[nH]c4ncccc34)cs1)cn2CCN1CCOCC1", "OVCAR-4 ovarian", "f"),
    ("C/C(=C\\c1ccn(-c2ccc(N)c(F)c2)n1)[C@@H]1C[C@@H]2O[C@]2(C)CCC[C@H](C)[C@H](O)[C@@H](C)C(=O)C(C)(C)[C@@H](O)CC(=O)O1", "OVCAR-4 ovarian", "f"),
    ("CCCCN1CCCC[C@@H]1C(=O)N[C@H](C(=O)N(C)[C@H](CCc1nc(C(=O)N[C@@H](Cc2ccccc2)C[C@H](C)C(=O)OC)cs1)C(C)C)[C@@H](C)CC", "OVCAR-4 ovarian", "f"),
    ("CN1CCCCC1C(C)(O)c1ccccc1 (centres undefined)", "OVCAR-4 ovarian", "f"),
    ("CC1=C(O)[C@@](C)(CCCCC[C@H](C)CCCCc2ccc(O)cc2)OOC1=O", "OVCAR-4 ovarian", "f"),
    ("Cc1ccc(C(=O)NCCCOc2ccc(N3C(N)=NC(N)=NC3(C)C)cc2Cl)cc1S(=O)(=O)F", "OVCAR-4 ovarian", "f"),
    ("Clc1cccc(NCOOC2(OOCNc3cccc(Cl)c3)CCCCCC2)c1", "OVCAR-4 ovarian", "f"),
    ("COc1cccc2c1c(C(=O)C(=O)Nc1ccn[nH]1)cn2Cc1ccc(F)cc1", "OVCAR-4 ovarian", "f"),
    ("C/C(=C\\c1cc(C(F)(F)F)nn1CCNC(=O)OC(C)(C)C)[C@@H]1C[C@@H]2O[C@]2(C)CCC[C@H](C)[C@H](O)[C@@H](C)C(=O)C(C)(C)[C@@H](O)CC(=O)O1", "OVCAR-4 ovarian", "f"),
    ("CCCC(C)C1(CC)C(=O)NC(=O)N(C)C1=O (centres undefined)", "OVCAR-4 ovarian", "f"),
    ("ClCCN(CCCl)c1ccc(OCc2ccccc2)cc1", "OVCAR-4 ovarian", "f"),
    ("COC(=O)[C@@H](C)C[C@H](Cc1ccc(F)cc1)NC(=O)c1csc([C@@H](C[C@H](C(C)C)N(C)C(=O)[C@@H](NC(=O)[C@H]2CCCCN2C)C(C)C)OC(C)=O)n1", "OVCAR-4 ovarian", "f"),
    ("COc1cc(C=Nc2cccc(C(=O)O)c2)ccc1N(CCCl)CCCl", "OVCAR-4 ovarian", "f"),
    ("CC1=C2[C@@H](CC1)[C@]1(C)O[C@@](C(C)C)(C[C@H]1O)[C@H]2OC(=O)C1CC1c1ccccc1 (some centres undefined)", "OVCAR-4 ovarian", "f"),
    ("CC(C)[C@@H]1NC(=O)[C@]2(C)CSC(=N2)c2csc(n2)CNC(=O)C[C@@H](/C=C/CCS)OC1=O", "OVCAR-4 ovarian", "f"),
    ("CC1=C([Te]c2ccc(O)cc2)C(=O)c2ccccc2C1=O", "OVCAR-4 ovarian", "t"),
    ("O=[N+]([O-])c1cc(I)cc([N+](=O)[O-])c1", "OVCAR-4 ovarian", "f"),
    ("N#Cc1c(Br)n(C2OC(CO)C(O)C2O)c2ncnc(N)c12 (centres undefined)", "OVCAR-4 ovarian", "f"),
    ("CC(C)(C)C(=O)OCOP(=O)(NCc1ccccc1)C1CCCN(O)C1=O (centres undefined)", "OVCAR-4 ovarian", "f"),
    ("C[C@@H]1O[C@@H](O[C@H]2C[C@@H](O)[C@]3(CO)C4C(CC[C@]3(O)C2)[C@@]2(O)CC[C@H](C3=CC(=O)OC3)[C@@]2(C)C[C@H]4O)[C@H](O)[C@H](O)[C@H]1O (some centres undefined)", "OVCAR-4 ovarian", "t"),
    ("O=C(CCCCCNC1=CC(=O)c2ccccc2C1=O)NCCC[Te]c1ccccc1", "OVCAR-4 ovarian", "t"),
    ("O=[N+]([O-])c1ccc([Se]C2CCCCC2Cl)c([N+](=O)[O-])c1 (centres undefined)", "OVCAR-4 ovarian", "f"),
    ("Nc1ccc(-c2nc3cc(F)ccc3[se]2)cc1F", "OVCAR-4 ovarian", "f"),
    ("CCCC(=O)O[C@@H]1C[C@H]2C[C@@H](O[C@@H]3O[C@@H](C)[C@@H](O)[C@@H](O)[C@H]3OC)C[C@@H](C[C@@H](C)/C=C/C=C\\C[C@@H]3O[C@@H](C[C@@H]3C)[C@@H](O)C[C@H]3C[C@@]1(O)C(=O)O3)O2", "OVCAR-4 ovarian", "f"),
    ("[Cl][Hg][n]1c(-c2ccco2)nc2ccccc21", "OVCAR-4 ovarian", "f"),
    ("COC(=O)[C@@H](C)C[C@H](Cc1ccccc1)NC(=O)c1csc([C@@H](C[C@H](C(C)C)N(C)C(=O)[C@H](C)NC(=O)[C@H]2CCCN2C)OC(C)=O)n1", "OVCAR-4 ovarian", "f"),
    ("CC(C)OC(=O)[C@H](C)NP(=O)(Oc1ccccc1)C1CCCN(O)C1=O (some centres undefined)", "OVCAR-4 ovarian", "f"),
    ("COc1ccc(Nc2ccc([N+](=O)[O-])cc2[N+](=O)[O-])cc1CN(CCCl)CCCl", "OVCAR-4 ovarian", "f"),
    ("CC1CN1CCCCN1CC1C (centres undefined)", "OVCAR-4 ovarian", "f"),
    ("CC(=O)O[C@H](C[C@H](C(C)C)N(C)C(=O)[C@@H](NC(=O)[C@H]1CCCN1C)C(C)C)c1nc(C(=O)N[C@@H](Cc2ccccc2)C[C@H](C)C(=O)O)c(C)s1", "OVCAR-4 ovarian", "f"),
    ("Nc1cc2nc3ccccc3nc2cc1N", "OVCAR-4 ovarian", "f"),
    ("CC[C@H](C)[C@H](NC(=O)[C@H]1CCCCN1C)C(=O)N(C)[C@H](CC(=O)c1nc(C(=O)N[C@@H](Cc2ccccc2)C[C@H](C)C(=O)O)cs1)C(C)C", "OVCAR-4 ovarian", "f"),
    ("O=[N+]([O-])c1ccc(OP(=O)(CCl)N(CCCl)CCCl)cc1 (centres undefined)", "OVCAR-4 ovarian", "f"),
]

====

- Test system: SN12C renal
- procedure.summary: NCI-60 one-dose screen, 48 h (100 = growth as untreated, 0 = no growth, -100 = all killed)
- applied.conditions: 10 µM unless noted
About 83,000 compounds went through this panel and 20% of them were active in at least one assay; those are over-represented in the sample as a whole.
Catalogue of compounds with associated growth

# compound, growth, %
records = [
    ("CCOC(=O)CCC(NC(=O)C(Cc1ccc(N(CCCl)CCCl)cc1)NC=O)C(=O)OCC (centres undefined)", 3.28),
    ("N#CC1(C#N)C(c2ccc(N(CCCl)CCCl)cc2)OC23CCCCC2C1(C#N)C(=N)O3 (centres undefined)", 69.1),
    ("CC(C)[C@]12O[C@H]1[C@@H]1O[C@]13[C@]1(O[C@H]1C[C@H]1c4c(C(=O)c5ccccc5)oc(OC(=O)c5ccccc5)c4CC[C@@]13C)[C@@H]2O", 23.7),
    ("O=C(CCCC1CCCCC1)OCC(Cl)(Cl)Cl", 106),
]
